Cited source for all entries: ChEMBL document CHEMBL5532687

Molecular target: Arginase-1 (Bos taurus)
Sequence (Q2KJ64 whole entry): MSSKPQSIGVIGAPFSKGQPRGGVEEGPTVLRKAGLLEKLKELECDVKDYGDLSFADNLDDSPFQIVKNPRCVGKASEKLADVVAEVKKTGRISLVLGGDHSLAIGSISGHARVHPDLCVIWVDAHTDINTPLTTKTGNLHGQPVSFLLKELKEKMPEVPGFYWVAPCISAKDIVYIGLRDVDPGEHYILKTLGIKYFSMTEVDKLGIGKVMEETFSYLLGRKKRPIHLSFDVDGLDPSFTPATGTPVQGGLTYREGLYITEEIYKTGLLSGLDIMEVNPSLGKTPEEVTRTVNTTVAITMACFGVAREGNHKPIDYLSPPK
measured.attribute: IC50 (µM)
Just the number in µM, nothing appended.

Asked: # query: IC50 of entry `O=C(/C=C/c1ccc(O)c(O)c1)c1ccc(O)c(O)c1`
Given back: 91.1

Asked: # query: IC50 of entry `O=C1/C(=C/c2ccc(O)c(O)c2)Oc2c1ccc(O)c2O`
Given back: 254

Asked: # query: IC50 of entry O=C1/C(=C/c2ccc(O)c(O)c2)Oc2cc(O)ccc21 [SULFURETIN]
Given back: 437

Asked: # query: IC50 of entry O=C(/C=C/c1ccc(O)c(O)c1)O[C@@H]1C[C@](O)(C(=O)O)C[C@@H](O)[C@H]1O [CHLOROGENIC ACID]
Given back: 271

Asked: # query: IC50 of entry `O=C(/C=C/c1ccccc1)c1ccc(O)c(O)c1`
Given back: 384
